# THP-1 cells: GI50 values follow
The answer is to be given in nM; state only the numeric part.

The cases that follow already have their GI50 on record.
COMPOUND	OBSERVED
Cc1nn(C2CC2)c2c1C(c1cccc(OC(F)(F)F)c1)N(c1cc(C)c(=O)n(C)c1)C2=O (stereo not drawn)	908
COCc1nn(C2CC2)c2c1C(c1ccc(Cl)cc1)N(c1cc(C)c(=O)n(C)c1)C2=O (racemic)	107
Cc1cc(N2C(=O)c3nn(C4CC4)c(C)c3C2c2ccc(Cl)cc2)cn2c(C)nnc12 (stereo not drawn)	26.4
Cc1cc(N2C(=O)c3c(c(C4CC4)nn3C)C2c2ccc(Cl)cc2)cn2c(C)nnc12 (racemic)	22.6
Cc1nn(C2COC2)c2c1C(c1ccc(Cl)cc1)N(c1cc(C)c3nnc(C)n3c1)C2=O (stereo not drawn)	64

The compound COc1ncc(-n2nc3c(c2C(C)C)[C@H](c2ccc(Cl)cc2)N(c2cc(C)c4onc(C)c4c2)C3=O)c(OC)n1 , when measured on THP-1 cells, yielded GI50 of 2430

GI50 of Cc1cc(N2C(=O)c3nn(C4COC4)c(C)c3C2c2ccc(Cl)cc2)cn2c(C)nnc12 (stereo not drawn) , assay on THP-1 cells, is 80.2

###

biological target: nuclear BRD4-NUT foci in HCC2494 NUT midline carcinoma cells (Homo sapiens, UniProt O60885+Q86Y26); construct: HCC2494 NUT midline carcinoma cells (expressing BRD4-NUT-fusion); experiment: Nut-foci formation assay; settings: 24 hours, NUT-foci per nucleus, read-out: HCS Brd4-NUT IC50
MEASUREMENT TYPE: IC50 (nM)
# value in nM; strip the unit string

The reported IC50 of the molecule CNc1cc(N2C(=O)c3c(c(C)nn3C3CC3)C2c2ccc(Cl)cc2)nn2c(C)nnc12 (racemic) was 151

###

tested on: THP-1 cells
Threshold-based label: GI50 under 200 nM gives y, GI50 not under 200 nM gives n.

COMPOUND	ASSIGNED CLASS
COc1ncc(-n2nc(C)c3c2C(=O)N(c2cc(Cl)c(=O)n(C)c2)C3c2ccc(Cl)cc2)c(OC)n1 (stereo not shown) [Example 53]	n

**Query** Record CCc1nn(-c2ccnn2C)c2c1C(c1ccc(Cl)cc1)N(c1cc(C)c(=O)n(C)c1)C2=O (stereo not shown) [Example 89] : is its GI50 strictly below 200 nM?
**Result** y

**Query** Is 200 nM strictly greater than the compound's reported GI50? compound: CCOc1c2c(nn1C)C(=O)N(c1cc(C)c(=O)n(C)c1)C2c1ccc(Cl)cc1 (stereo not shown) [Example 76]
**Result** y

**Query** Is GI50 strictly under 200 nM for the entry CC(=O)N1CC(n2nc(C)c3c2C(=O)N(c2cc(C)c(=O)n(C)c2)C3c2ccc(Cl)cc2)C1 (stereo not shown) [Example 153] ?
**Result** n

**Query** # check: GI50 < 200 nM for Cc1nn(C2CCC2)c2c1C(c1ccc(Cl)cc1)N(c1cc(C)c(=O)n(C)c1)C2=O (stereo not shown) [Example 94]
**Result** y

**Query** Decide: GI50 of COc1ncc(-n2nc3c(c2C)C(c2ccc(Cl)cc2)N(c2cc(Cl)c(=O)n(C)c2)C3=O)c(OC)n1 (stereo not shown) [Example 55] strictly below 200 nM?
**Result** n

**Query** Please let me know if CCc1nn(-c2cnc(OC)nc2OC)c2c1C(c1ccc(Cl)cc1)N(c1cc(C)c(=O)n(C)c1)C2=O (stereo not shown) [Example 60] shows GI50 below 200 nM.
**Result** y
